// reported TGI per item
System: M19-MEL melanoma
Assay: NCI tumour cell line growth inhibition, 48 h
METRIC_NAME: TGI

>  <STRUCTURE>
CCc1cccc(C(C)C)c1NC(=O)C(=O)CC(=O)c1c(C)n([O-])c2ccccc2[n+]1=O

>  <TARGET_OF_ASSAY>
M19-MEL melanoma

>  <RECORDED_VALUE>
> 100 µM

$$$$
>  <STRUCTURE>
CS(=O)(=O)OCCN1CCN(C(=O)c2cccc3c(Nc4ccc(S(=O)(=O)N=C(N)N)cc4)c4ccccc4nc23)CC1

>  <TARGET_OF_ASSAY>
M19-MEL melanoma

>  <RECORDED_VALUE>
> 100 µM

$$$$
>  <STRUCTURE>
CN(C)c1ccc([O-])cc1.CN(C)c1ccc([O-])cc1.CN(C)c1ccc([O-])cc1.CN(C)c1ccc([O-])cc1.[Ti+4]

>  <TARGET_OF_ASSAY>
M19-MEL melanoma

>  <RECORDED_VALUE>
> 100 µM

$$$$

----------
System: NCI-H522 lung
Assay: NCI tumour cell line growth inhibition, 48 h

>  <COMPOUND>
Cn1nc(-c2ccccc2)c(C(=O)/C=C/c2ccc(F)cc2)c(N2CCCCC2)c1=O

>  <TARGET_OF_ASSAY>
NCI-H522 lung

>  <TGI>
28.7 µM

$$$$
>  <COMPOUND>
O=C(O)COc1ccc(O)c2c1C(=O)CCCC2=O

>  <TARGET_OF_ASSAY>
NCI-H522 lung

>  <TGI>
> 100 µM

$$$$
>  <COMPOUND>
CCCCc1cc2c(C)cc(=O)oc2c(O)c1O

>  <TARGET_OF_ASSAY>
NCI-H522 lung

>  <TGI>
49 µM

$$$$
>  <COMPOUND>
COc1ccc(NC(=O)C(=O)Cc2nc3ccc([N+](=O)[O-])cc3[nH]c2=O)c(OC)c1

>  <TARGET_OF_ASSAY>
NCI-H522 lung

>  <TGI>
> 100 µM

$$$$
>  <COMPOUND>
CCCCS(=O)CCC(N)C(=O)O (stereo unspecified)

>  <TARGET_OF_ASSAY>
NCI-H522 lung

>  <TGI>
> 100 µM

$$$$
>  <COMPOUND>
O=C(c1ccc(Cl)cc1)c1ccc(OCCCCCCCCCCOc2ccc(C(=O)c3ccc(Cl)cc3)cc2)cc1

>  <TARGET_OF_ASSAY>
NCI-H522 lung

>  <TGI>
> 100 µM

$$$$
>  <COMPOUND>
COc1ccc(/C=c2\[nH]c3nc(=O)c(N4CCOCC4)c(N)n3c2=O)cc1

>  <TARGET_OF_ASSAY>
NCI-H522 lung

>  <TGI>
> 100 µM

$$$$
>  <COMPOUND>
Oc1cc(O)c(Oc2cccc(O)c2O)c(O)c1

>  <TARGET_OF_ASSAY>
NCI-H522 lung

>  <TGI>
> 100 µM

$$$$
>  <COMPOUND>
C/C(=C\c1ccccn1)c1ccccn1

>  <TARGET_OF_ASSAY>
NCI-H522 lung

>  <TGI>
> 100 µM

$$$$
>  <COMPOUND>
O=Nc1c(-c2c(O)[nH]c3ccc([N+](=O)[O-])cc23)[nH]c2ccc(O)cc12

>  <TARGET_OF_ASSAY>
NCI-H522 lung

>  <TGI>
2.67 µM

$$$$
>  <COMPOUND>
COc1ccccc1/C=C1\CCC(CCN(C)C)(C2=CCCC2)C1=O (stereo unspecified)

>  <TARGET_OF_ASSAY>
NCI-H522 lung

>  <TGI>
27.1 µM

$$$$
